Value source: paper PMC3006138

- Assay notes: Rat 28-day toxicokinetics
- Assay type: in vivo
- Applied conditions: male, Sprague-Dawley (Crl:CD (SD)IGS BR), plasma, po, 50 mg/kg/day, Day 28, male, read-out: AUC0-t(last)
Property: AUC(0-t) (µg·h/mL)
Give bare numbers, in µg·h/mL.

What AUC(0-t) value was documented for this compound, "Cn1c([N+](=O)[O-])cnc1COc1ccc(S(C)(=O)=O)cc1" ?
113

====

- Assay notes: Rat 28-day toxicokinetics
- Type: in vivo
- Applied conditions: male, Sprague Dawley (Crl:CD (SD)IGS BR), plasma, po, 200 mg/kg, Day 1, male, read-out: AUC0-t(last)
Would you kindly list AUC(0-t) for each of these molecules?
Answers are plain numbers, in ng·h/mL.

# Molecule, Property, Endpoint result
data = [
    ("CSc1ccc(OCc2ncc([N+](=O)[O-])n2C)cc1", "AUC(0-t)", 1120),
]

For each of the molecules below, note its AUC(0-t).
1. Cn1c([N+](=O)[O-])cnc1COc1ccc(S(C)(=O)=O)cc1
2. Cn1c([N+](=O)[O-])cnc1COc1ccc([S+](C)[O-])cc1 (stereo not drawn) [Fexinidazole sulfoxide]

1. 119000
2. 80500
